- targetEntity: Zcchc11 enzyme (Homo sapiens, UniProt Q5TAX3)
- Construct: made in house; host or cells: HEK293 cells (Zcchc11); E. coli Rosetta II (LIN28A)
- Sequence (Q5TAX3 212-1420): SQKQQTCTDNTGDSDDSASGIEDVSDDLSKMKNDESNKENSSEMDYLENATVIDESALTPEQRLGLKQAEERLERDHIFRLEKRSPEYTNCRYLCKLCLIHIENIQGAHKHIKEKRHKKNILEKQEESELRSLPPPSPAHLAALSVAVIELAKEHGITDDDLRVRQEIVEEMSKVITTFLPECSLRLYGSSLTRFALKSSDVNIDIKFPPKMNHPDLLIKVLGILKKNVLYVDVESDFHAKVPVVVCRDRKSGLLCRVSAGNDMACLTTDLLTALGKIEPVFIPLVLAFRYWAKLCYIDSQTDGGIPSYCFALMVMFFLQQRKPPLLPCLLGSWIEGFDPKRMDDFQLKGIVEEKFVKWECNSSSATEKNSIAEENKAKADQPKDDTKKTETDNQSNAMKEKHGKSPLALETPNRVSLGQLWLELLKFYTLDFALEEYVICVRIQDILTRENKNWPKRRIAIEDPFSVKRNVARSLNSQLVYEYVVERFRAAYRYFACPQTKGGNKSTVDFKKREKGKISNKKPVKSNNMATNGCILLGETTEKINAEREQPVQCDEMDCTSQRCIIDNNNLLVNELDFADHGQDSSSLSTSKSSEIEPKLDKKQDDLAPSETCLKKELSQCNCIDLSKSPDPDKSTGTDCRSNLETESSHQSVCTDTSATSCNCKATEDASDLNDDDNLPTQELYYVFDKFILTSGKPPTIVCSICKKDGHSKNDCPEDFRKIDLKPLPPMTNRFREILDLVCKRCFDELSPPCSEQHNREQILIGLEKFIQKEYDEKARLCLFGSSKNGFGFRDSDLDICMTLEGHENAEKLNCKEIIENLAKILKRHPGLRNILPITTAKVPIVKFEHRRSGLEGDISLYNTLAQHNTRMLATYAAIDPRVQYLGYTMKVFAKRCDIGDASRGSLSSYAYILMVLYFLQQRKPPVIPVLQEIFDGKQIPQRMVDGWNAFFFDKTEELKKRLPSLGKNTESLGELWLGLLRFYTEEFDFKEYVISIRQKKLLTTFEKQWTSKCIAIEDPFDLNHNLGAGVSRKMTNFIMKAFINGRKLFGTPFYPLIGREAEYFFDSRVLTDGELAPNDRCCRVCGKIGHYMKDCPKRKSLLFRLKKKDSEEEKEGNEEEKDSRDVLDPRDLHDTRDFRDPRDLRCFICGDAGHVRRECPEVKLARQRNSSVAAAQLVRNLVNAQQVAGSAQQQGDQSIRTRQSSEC
- experiment: TUTase assay (Zcchc11 assay, Lin28a-dependent polyuridylation of pre-let-7)
- Type: biochemical
- measurementSetup: LIN28A 10 nM, Zcchc11 0.2 nM, 5′-fluorescein pre-let-7 miRNA 2 nM, UTP 5 uM, room temperature, 30 minutes pre-incubation; read-out: Potency Lin28a-dep Z11 IC50
Attribute: IC50
attributeMeasured: IC50

recordsmiles=O=C(O)c1cn(-c2ncccn2)c2cc(N3CCC[C@@H]3COc3ccccn3)c(Cl)cc2c1=O targetentity="Zcchc11 enzyme (Homo sapiens, UniProt Q5TAX3)" result="1000 to 10000 nM"
recordsmiles=Cc1cccnc1OC[C@H]1CCCN1c1cc2c(cc1F)c(=O)c(C(=O)O)cn2C1CCOCC1 targetentity="Zcchc11 enzyme (Homo sapiens, UniProt Q5TAX3)" result="≤ 1000 nM"
recordsmiles=CN(C)C1CN(c2ccc(-n3cc(C(=O)O)c(=O)c4cc(Cl)c(N5CCC[C@]5(C)COc5ncccc5Cl)nc43)cn2)C1 targetentity="Zcchc11 enzyme (Homo sapiens, UniProt Q5TAX3)" result="≤ 1000 nM"
recordsmiles=O=C(O)c1cn(-c2cnccn2)c2cc(N3C[C@@H](F)C[C@H]3COc3ncccc3Cl)c(Cl)cc2c1=O targetentity="Zcchc11 enzyme (Homo sapiens, UniProt Q5TAX3)" result="≤ 1000 nM"
